# Experimental Target: CDK12 (nuclear staining in CAL-120 cells) (Homo sapiens, UniProt Q9NYV4)
# Construct: endogenous in cells; host or cells: CAL-120 human breast cancer cells (DSMZ ACC 459)
# Sequence (Q9NYV4 whole entry): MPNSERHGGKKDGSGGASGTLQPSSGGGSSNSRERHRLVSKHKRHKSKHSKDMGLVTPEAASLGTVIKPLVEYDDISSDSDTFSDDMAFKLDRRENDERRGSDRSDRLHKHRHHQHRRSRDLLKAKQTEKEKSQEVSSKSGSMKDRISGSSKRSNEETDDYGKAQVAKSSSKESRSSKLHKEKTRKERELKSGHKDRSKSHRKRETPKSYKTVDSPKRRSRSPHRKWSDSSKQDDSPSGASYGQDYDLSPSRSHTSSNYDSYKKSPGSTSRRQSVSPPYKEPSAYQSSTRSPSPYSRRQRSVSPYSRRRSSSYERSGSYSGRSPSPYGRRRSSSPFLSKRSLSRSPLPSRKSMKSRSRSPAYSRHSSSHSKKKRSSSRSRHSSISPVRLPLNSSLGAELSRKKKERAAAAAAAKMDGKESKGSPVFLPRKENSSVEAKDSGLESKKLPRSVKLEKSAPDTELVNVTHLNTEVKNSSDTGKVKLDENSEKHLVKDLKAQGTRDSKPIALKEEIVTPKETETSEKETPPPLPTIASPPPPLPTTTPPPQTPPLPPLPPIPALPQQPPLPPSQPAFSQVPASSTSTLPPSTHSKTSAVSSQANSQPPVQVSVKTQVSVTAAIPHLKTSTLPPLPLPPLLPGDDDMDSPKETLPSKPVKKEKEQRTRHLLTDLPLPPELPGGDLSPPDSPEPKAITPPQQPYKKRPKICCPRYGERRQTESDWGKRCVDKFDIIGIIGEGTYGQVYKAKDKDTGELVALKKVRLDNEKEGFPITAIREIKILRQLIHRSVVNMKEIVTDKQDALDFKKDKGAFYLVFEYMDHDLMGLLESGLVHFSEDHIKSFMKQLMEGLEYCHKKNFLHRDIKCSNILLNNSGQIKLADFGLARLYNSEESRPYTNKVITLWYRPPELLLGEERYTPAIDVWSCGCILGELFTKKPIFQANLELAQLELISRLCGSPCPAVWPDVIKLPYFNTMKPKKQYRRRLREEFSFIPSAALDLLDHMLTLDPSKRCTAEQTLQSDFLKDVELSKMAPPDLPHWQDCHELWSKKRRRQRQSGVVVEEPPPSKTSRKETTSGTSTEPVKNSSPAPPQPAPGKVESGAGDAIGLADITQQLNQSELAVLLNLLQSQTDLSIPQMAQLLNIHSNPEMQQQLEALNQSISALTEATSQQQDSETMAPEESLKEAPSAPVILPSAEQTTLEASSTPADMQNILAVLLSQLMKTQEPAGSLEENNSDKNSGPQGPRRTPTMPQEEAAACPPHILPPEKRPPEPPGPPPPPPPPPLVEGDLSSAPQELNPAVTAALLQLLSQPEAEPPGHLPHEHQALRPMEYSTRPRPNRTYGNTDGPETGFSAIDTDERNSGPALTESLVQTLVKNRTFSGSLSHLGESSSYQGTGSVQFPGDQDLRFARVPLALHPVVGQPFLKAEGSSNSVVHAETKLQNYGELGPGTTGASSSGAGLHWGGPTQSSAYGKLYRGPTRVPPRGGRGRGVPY
# Sequence (O75909 whole entry partner): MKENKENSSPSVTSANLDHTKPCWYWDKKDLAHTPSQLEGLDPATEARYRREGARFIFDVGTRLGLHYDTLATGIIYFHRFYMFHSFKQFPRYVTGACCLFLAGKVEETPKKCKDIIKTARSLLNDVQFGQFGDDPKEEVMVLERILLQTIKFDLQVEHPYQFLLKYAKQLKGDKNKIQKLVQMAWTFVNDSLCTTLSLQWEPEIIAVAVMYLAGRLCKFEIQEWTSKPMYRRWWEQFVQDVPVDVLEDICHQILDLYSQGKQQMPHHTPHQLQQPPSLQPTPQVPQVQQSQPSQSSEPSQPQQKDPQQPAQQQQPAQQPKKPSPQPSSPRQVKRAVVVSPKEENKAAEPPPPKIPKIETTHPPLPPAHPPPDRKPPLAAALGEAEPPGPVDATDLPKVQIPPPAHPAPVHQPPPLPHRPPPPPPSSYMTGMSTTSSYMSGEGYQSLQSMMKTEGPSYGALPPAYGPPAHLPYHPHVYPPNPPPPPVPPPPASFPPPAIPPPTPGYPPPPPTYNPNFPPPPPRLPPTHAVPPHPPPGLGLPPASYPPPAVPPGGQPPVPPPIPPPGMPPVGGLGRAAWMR
# Assay Comment: CDK12 nuclear protein level: immunofluorescence/high content analysis (CAL-120)
# Assay type: cell-based
# Test Conditions: ratio of IC50 CDK12 high ATP kinase assay to DC50 CDK12 degradation (IF, CAL-120)
Measured (IC50 CDK12 high ATP) to (Degradation DC50 CDK12) ratio by item
Give your answer as a number; write no unit.

Examples from the recorded data:
Brc1cnn2c(NCc3nnc(-c4ccccc4)[nH]3)nc(N3CCOCC3)nc12: 564
FC(F)(F)Oc1ccccc1-c1cnc(CNc2nc(N3CCOCC3)nc3c(Br)cnn23)[nH]1: 1471
Fc1ccc2[nH]c(CNc3nc(N4CCOCC4)nc4c(-c5cncs5)cnn34)nc2c1F.O=C(O)C(F)(F)F: 125

Consider the additional compound presented here.
I would be grateful if you could share the reported (IC50 CDK12 high ATP) to (Degradation DC50 CDK12) ratio for C[C@@H]1CN(c2nc(NCc3nc4c(F)cccc4[nH]3)n3ncc(C4CC4)c3n2)C[C@H](C)N1 .
12018
